# System tested: KRAS^G12C-SOS1 (Homo sapiens (Human), UniProt P01116, G12C)
# Sequence (P01116-2 other isoform, or with tags, fused parts or gaps G12C): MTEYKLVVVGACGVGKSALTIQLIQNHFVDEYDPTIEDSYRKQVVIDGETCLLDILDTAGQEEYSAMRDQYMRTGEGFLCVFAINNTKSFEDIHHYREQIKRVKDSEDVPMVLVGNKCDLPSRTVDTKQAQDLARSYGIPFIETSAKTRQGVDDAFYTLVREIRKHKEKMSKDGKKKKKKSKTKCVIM
# Procedure summary: HTRF KRAS G12C/SOS1 binding assay
# Conditions: Table 5
Strictly below 0.5 µM in IC50: TRUE. Otherwise: FALSE.

Compound: COc1ncc(-c2ccc3ncnc(N4CCN(C(=O)/C=C/C(C)=O)CC4)c3c2)cc1NS(=O)(=O)c1ccccc1F [Example 91]
System tested: KRAS^G12C-SOS1 (Homo sapiens (Human), UniProt P01116, G12C)
Group label: TRUE
--
Compound: COc1ncc(-c2ccc3ncnc(N4CCN(C(=O)/C=C/C(C)=O)CC4)c3n2)cc1NS(=O)(=O)c1c(Cl)cncc1Cl [Example 224]
System tested: KRAS^G12C-SOS1 (Homo sapiens (Human), UniProt P01116, G12C)
Group label: TRUE
--
Compound: COc1ncc(-c2ccc3ncnc(N4C[C@@H](C)N(C(=O)/C=C/C(C)=O)C[C@@H]4C)c3c2)cc1NS(=O)(=O)c1ccc(F)cc1F [Example 15]
System tested: KRAS^G12C-SOS1 (Homo sapiens (Human), UniProt P01116, G12C)
Group label: FALSE
--
Compound: COc1ncc(-c2ccc3ncnc(N4CCN(C(=O)/C=C/C(C)=O)CC4)c3n2)cc1NS(=O)(=O)c1ccccc1F [Example 133]
System tested: KRAS^G12C-SOS1 (Homo sapiens (Human), UniProt P01116, G12C)
Group label: TRUE
--
Compound: COc1ncc(-c2ccc3ncnc(N4CCN(C(=O)/C=C/C(C)=O)CC4)c3c2)cc1NS(=O)(=O)c1cc(F)ccc1F [Example 94]
System tested: KRAS^G12C-SOS1 (Homo sapiens (Human), UniProt P01116, G12C)
Group label: TRUE
--
Compound: COc1ncc(-c2ccc3ncnc(N4CCN(C(=O)/C=C/C(C)=O)C[C@@H]4C)c3c2)cc1NS(=O)(=O)c1ccccc1F [Example 152]
System tested: KRAS^G12C-SOS1 (Homo sapiens (Human), UniProt P01116, G12C)
Group label: TRUE
--
Compound: COc1ncc(-c2ccc3ncnc(N4CCC5(CC4)CN(C(=O)/C=C/C(C)=O)C5)c3c2)cc1NS(=O)(=O)c1c(F)cccc1F [Example 49]
System tested: KRAS^G12C-SOS1 (Homo sapiens (Human), UniProt P01116, G12C)
Group label: TRUE
--
Compound: COc1ncc(-c2ccc3ncnc(N4CC5CCC(C4)N5C(=O)/C=C/C(C)=O)c3c2)cc1NS(=O)(=O)c1ccc(F)cc1Cl [Example 175]
System tested: KRAS^G12C-SOS1 (Homo sapiens (Human), UniProt P01116, G12C)
Group label: TRUE
--
Compound: C=C(C(C)=O)C(=O)N1CCN(c2ncnc3ccc(-c4cnc(OC)c(NS(=O)(=O)c5ccc(F)cc5F)c4)cc23)CC1 [Example 168]
System tested: KRAS^G12C-SOS1 (Homo sapiens (Human), UniProt P01116, G12C)
Group label: FALSE
--
Compound: COc1ncc(-c2ccc3ncnc(N4CCN(C(=O)/C=C/C(C)=O)CC4)c3c2)cc1NS(=O)(=O)c1ccncc1C [Example 172]
System tested: KRAS^G12C-SOS1 (Homo sapiens (Human), UniProt P01116, G12C)
Group label: FALSE
--
Compound: COc1ncc(-c2ccc3ncnc(C4CCN(C(=O)/C=C/C(C)=O)CC4)c3c2)cc1NS(=O)(=O)c1sc(C)nc1C [Example 203]
System tested: KRAS^G12C-SOS1 (Homo sapiens (Human), UniProt P01116, G12C)
Group label: TRUE
--
Compound: COc1ncc(-c2ccc3ncnc(C4=CCN(C(=O)/C=C/C(C)=O)CC4)c3c2)cc1NS(=O)(=O)c1sc(C)nc1C [Example 199]
System tested: KRAS^G12C-SOS1 (Homo sapiens (Human), UniProt P01116, G12C)
Group label: TRUE

Data provenance is patent US20250145589A1.
